- targetDesc: Bile acid receptor (Homo sapiens)
- Sequence (Q96RI1 whole entry): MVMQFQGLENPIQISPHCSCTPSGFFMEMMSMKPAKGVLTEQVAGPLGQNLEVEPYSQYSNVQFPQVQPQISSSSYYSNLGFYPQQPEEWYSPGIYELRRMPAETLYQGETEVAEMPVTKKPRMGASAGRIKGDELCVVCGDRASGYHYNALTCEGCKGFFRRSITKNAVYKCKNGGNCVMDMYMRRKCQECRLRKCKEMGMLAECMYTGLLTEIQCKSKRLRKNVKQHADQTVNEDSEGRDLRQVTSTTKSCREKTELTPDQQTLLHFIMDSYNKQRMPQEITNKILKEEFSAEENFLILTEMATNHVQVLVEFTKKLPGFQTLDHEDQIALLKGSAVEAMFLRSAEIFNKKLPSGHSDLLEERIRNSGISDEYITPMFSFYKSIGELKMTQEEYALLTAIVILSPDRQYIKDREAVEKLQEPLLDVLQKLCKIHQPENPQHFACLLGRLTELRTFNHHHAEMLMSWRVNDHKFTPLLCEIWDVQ
- protocolDetails: Antagonist activity at human GST-tagged FXR after 20 mins by TR-FRET assay
metric: IC50 (µM)

Look over these answered cases.
O=C(Nc1cccc(S(=O)(=O)N2CCOCC2)c1)c1cn(-c2ccccc2)nc1-c1cccnc1	1.3
Cc1cccc(-n2ncc(C(=O)Nc3cccc(S(=O)(=O)N4CCOCC4)c3)c2C)c1	6.6

[P] O=C(Nc1ccc(F)c(S(=O)(=O)N2CCOCC2)c1)c1cnn(-c2ccccc2)c1
[Q] Cc1ccc(NC(=O)c2cnn(-c3ccccc3)c2C(F)(F)F)cc1S(=O)(=O)N1CCOCC1
[R] Cc1ccc(NC(=O)c2c(C)nn(-c3ccccc3)c2C)cc1S(=O)(=O)N1CCOCC1
Put the items in order so that reported IC50 rises from first to last. Output spec: a listing of the labels in the requested order.
Q, R, P
(Q: 0.996 µM, R: 3.3 µM, P: 8.3 µM)
